experiment_summary: No adverse effect level (NOAEL) in rat, p.o.
applied_conditions: in vivo, po
measurement_name: NOAEL

# input Which NOAEL is listed for CN[C@@H](C)Cc1ccc2c(c1)OCO2 [S-MDMA] ?
# output < 100 mg/kg

* * *

Each entry below carries its reported NOAEL.
experiment_summary: Human Equivalent Dose (HED) of NOAEL
applied_conditions: human, po

| sample_smiles | NOAEL |
| --- | --- |
| CN[C@H](C)Cc1ccc2c(c1)OCO2 | > 68 mg/kg |

Kindly consider the entry below.
# input Item CN[C@@H](C)Cc1ccc2c(c1)OCO2 has what recorded NOAEL?
# output < 34 mg/kg

// data source = patent US20240335418A1
